target: human cathepsin K (CatK) (Homo sapiens (Human)); experiment: CatK functional enzyme assay; settings: recombinant human CatK, substrate Z-FR-AMC 40 μM, pH 5.5; Ki by Cheng Prusoff equation; read-out: hCatK, Ki
Sequence (P43235 115-329): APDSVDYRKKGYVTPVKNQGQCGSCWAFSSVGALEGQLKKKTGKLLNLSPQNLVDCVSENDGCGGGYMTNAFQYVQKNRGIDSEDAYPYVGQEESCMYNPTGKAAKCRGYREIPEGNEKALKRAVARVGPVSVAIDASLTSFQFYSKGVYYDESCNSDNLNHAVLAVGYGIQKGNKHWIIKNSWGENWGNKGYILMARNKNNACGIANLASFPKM
Property name: Ki (nM)

[
  {
    "Compound": "O=C(N[C@H](C(=O)N1C[C@H](Cl)[C@H]2OCC(=O)[C@H]21)C1CCCCC1)c1ccc(-c2ccncc2)s1 [Example 3]",
    "Target": "human cathepsin K (CatK) (Homo sapiens (Human))",
    "Endpoint value": 3
  },
  {
    "Compound": "Cc1ccc(-c2cnc(C(=O)N[C@H](C(=O)N3C[C@H](Cl)[C@H]4OCC(=O)[C@H]43)C3CCCCC3)s2)cn1 [Example 42]",
    "Target": "human cathepsin K (CatK) (Homo sapiens (Human))",
    "Endpoint value": 14
  },
  {
    "Compound": "COc1cc(-c2ccc(C(=O)N[C@H](C(=O)N3C[C@H](Cl)[C@H]4OCC(=O)[C@H]43)C3CCCCC3)s2)cnn1 [Example 71]",
    "Target": "human cathepsin K (CatK) (Homo sapiens (Human))",
    "Endpoint value": 8
  }
]

---

target: UniProtKB P25774; assay: CatS functional enzyme assay; assay type: biochemical; conditions: recombinant human CatS, substrate Z-VVR-AMC 5 μM, pH 6.5; Ki by Cheng Prusoff equation; read-out: hCatS, Ki
pKi: −log10 of the molar value.

[
  {
    "Compound": "O=C(N[C@H](C(=O)N1C[C@H](Cl)[C@H]2OCC(=O)[C@H]21)C1CCCCC1)c1ccc(-c2ccncc2)o1 [Example 12]",
    "Target": "UniProtKB P25774",
    "pKi": 6.28
  },
  {
    "Compound": "Cc1cc(-c2ccc(C(=O)N[C@H](C(=O)N3C[C@H](Cl)[C@H]4OCC(=O)[C@H]43)C3CCCCC3)s2)ccn1 [Example 33]",
    "Target": "UniProtKB P25774",
    "pKi": 7.07
  },
  {
    "Compound": "Cc1cc(-c2cnc(C(=O)N[C@H](C(=O)N3C[C@H](Cl)[C@H]4OCC(=O)[C@H]43)C3CCCCC3)s2)ccn1 [Example 51]",
    "Target": "UniProtKB P25774",
    "pKi": 6.76
  },
  {
    "Compound": "Cc1cc(-c2cnc(C(=O)N[C@H](C(=O)N3C[C@H](Cl)[C@H]4OCC(=O)[C@H]43)C3CCCCC3)s2)cnn1 [Example 75]",
    "Target": "UniProtKB P25774",
    "pKi": 7.68
  },
  {
    "Compound": "O=C(N[C@H](C(=O)N1C[C@H](Cl)[C@H]2OCC(=O)[C@H]21)C1CCCCC1)c1ccc(-c2cc(C3CC3)cnn2)s1 [Example 74]",
    "Target": "UniProtKB P25774",
    "pKi": 8.15
  },
  {
    "Compound": "O=C(N[C@H](C(=O)N1C[C@H](Cl)[C@H]2OCC(=O)[C@H]21)C1CCCCC1)c1cc(F)c(-c2ccnnc2)s1 [Example 40]",
    "Target": "UniProtKB P25774",
    "pKi": 6.34
  },
  {
    "Compound": "COc1cnnc(-c2ccc(C(=O)N[C@H](C(=O)N3C[C@H](Cl)[C@H]4OCC(=O)[C@H]43)C3CCCCC3)s2)c1 [Example 72]",
    "Target": "UniProtKB P25774",
    "pKi": 7.26
  },
  {
    "Compound": "O=C(N[C@H](C(=O)N1C[C@H](Cl)[C@H]2OCC(=O)[C@H]21)C1CCCCC1)c1ccc(-c2ccncn2)s1 [Example 7]",
    "Target": "UniProtKB P25774",
    "pKi": 7.25
  },
  {
    "Compound": "COc1cc(-c2ccc(C(=O)N[C@H](C(=O)N3C[C@H](Cl)[C@H]4OCC(=O)[C@H]43)C3CCCCC3)s2)cnn1 [Example 71]",
    "Target": "UniProtKB P25774",
    "pKi": 7.64
  },
  {
    "Compound": "COc1cc(-c2ccc(C(=O)N[C@H](C(=O)N3C[C@H](Cl)[C@H]4OCC(=O)[C@H]43)C3CCCCC3)s2)ccn1 [Example 56]",
    "Target": "UniProtKB P25774",
    "pKi": 7.04
  },
  {
    "Compound": "CCc1cc(-c2ccc(C(=O)N[C@H](C(=O)N3C[C@H](Cl)[C@H]4OCC(=O)[C@H]43)C3CCCCC3)s2)cnn1 [Example 85]",
    "Target": "UniProtKB P25774",
    "pKi": 8.22
  },
  {
    "Compound": "O=C(N[C@H](C(=O)N1C[C@H](Cl)[C@H]2OCC(=O)[C@H]21)C1CCCCC1)c1ccc(-c2ccnnc2)s1 [Example 8]",
    "Target": "UniProtKB P25774",
    "pKi": 7.68
  },
  {
    "Compound": "O=C(N[C@H](C(=O)N1C[C@H](Cl)[C@H]2OCC(=O)[C@H]21)C1CCCCC1)c1ncc(-c2ccc(Cl)nc2)s1 [Example 52]",
    "Target": "UniProtKB P25774",
    "pKi": 6.69
  },
  {
    "Compound": "O=C(N[C@H](C(=O)N1C[C@H](Cl)[C@H]2OCC(=O)[C@H]21)C1CCCCC1)c1ccc(-c2cnnc(O)c2)s1 [Example 80]",
    "Target": "UniProtKB P25774",
    "pKi": 7.38
  },
  {
    "Compound": "Cc1ncc(-c2ccc(C(=O)N[C@H](C(=O)N3C[C@H](Cl)[C@H]4OCC(=O)[C@H]43)C3CCCCC3)s2)cn1 [Example 30]",
    "Target": "UniProtKB P25774",
    "pKi": 7.14
  },
  {
    "Compound": "O=C(N[C@H](C(=O)N1C[C@H](Cl)[C@H]2OCC(=O)[C@H]21)C1CCCCC1)c1ccc(-c2cncnc2)s1 [Example 5]",
    "Target": "UniProtKB P25774",
    "pKi": 7.32
  },
  {
    "Compound": "O=C(N[C@H](C(=O)N1C[C@H](Cl)[C@H]2OCC(=O)[C@H]21)C1CCCCC1)c1ccc(-c2ccncc2F)s1 [Example 31]",
    "Target": "UniProtKB P25774",
    "pKi": 6.36
  },
  {
    "Compound": "O=C(N[C@H](C(=O)N1C[C@H](Cl)[C@H]2OCC(=O)[C@H]21)C1CCCCC1)c1ncc(-c2ccnc(C3CC3)c2)s1 [Example 82]",
    "Target": "UniProtKB P25774",
    "pKi": 6.89
  },
  {
    "Compound": "O=C(N[C@H](C(=O)N1C[C@H](Cl)[C@H]2OCC(=O)[C@H]21)C1CCCCC1)c1ccc(-c2cncc(F)c2)s1 [Example 16]",
    "Target": "UniProtKB P25774",
    "pKi": 6.59
  },
  {
    "Compound": "Cc1cc(-c2ccc(C(=O)N[C@H](C(=O)N3C[C@H](Cl)[C@H]4OCC(=O)[C@H]43)C3CCCCC3)s2)cnn1 [Example 69]",
    "Target": "UniProtKB P25774",
    "pKi": 8.05
  },
  {
    "Compound": "O=C(N[C@H](C(=O)N1C[C@H](Cl)[C@H]2OCC(=O)[C@H]21)C1CCCCC1)c1ccc(-c2cccnn2)s1 [Example 6]",
    "Target": "UniProtKB P25774",
    "pKi": 7.22
  },
  {
    "Compound": "N#Cc1cncc(-c2ccc(C(=O)N[C@H](C(=O)N3C[C@H](Cl)[C@H]4OCC(=O)[C@H]43)C3CCCCC3)s2)c1 [Example 39]",
    "Target": "UniProtKB P25774",
    "pKi": 6.65
  },
  {
    "Compound": "O=C(N[C@H](C(=O)N1C[C@H](Cl)[C@H]2OCC(=O)[C@H]21)C1CCCCC1)c1sc(-c2cccnc2)cc1F [Example 65]",
    "Target": "UniProtKB P25774",
    "pKi": 6.19
  },
  {
    "Compound": "O=C(N[C@H](C(=O)N1C[C@H](Cl)[C@H]2OCC(=O)[C@H]21)C1CCCCC1)c1ccc(-c2ccc[n+]([O-])c2)s1 [Example 70]",
    "Target": "UniProtKB P25774",
    "pKi": 7.57
  }
]

---

target: human cathepsin S (CatS) (Homo sapiens (Human)); test: CatS functional enzyme assay; format: biochemical; conditions: read-out: hCatS, inhibition [%] at 10 μM
Sequence (P25774 115-331): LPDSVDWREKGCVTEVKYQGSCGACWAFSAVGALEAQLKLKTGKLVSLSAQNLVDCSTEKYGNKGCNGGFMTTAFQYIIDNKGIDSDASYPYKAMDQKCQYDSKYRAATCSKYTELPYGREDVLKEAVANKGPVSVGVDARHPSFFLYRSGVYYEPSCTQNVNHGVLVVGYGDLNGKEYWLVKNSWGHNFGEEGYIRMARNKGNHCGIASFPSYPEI
Property name: inhibition at 10 µM (%)

[
  {
    "Input smiles": "O=C(N[C@H](C(=O)N1C[C@H](Cl)[C@H]2OCC(=O)[C@H]21)C1CCCCC1)c1cnc(-c2cccnc2)s1",
    "Property name": "inhibition at 10 µM",
    "Endpoint value": 73
  },
  {
    "Input smiles": "O=C(N[C@H](C(=O)N1C[C@H](Cl)[C@H]2OCC(=O)[C@H]21)C1CCCCC1)c1nnc(-c2ccncc2)s1",
    "Property name": "inhibition at 10 µM",
    "Endpoint value": 83
  },
  {
    "Input smiles": "Cc1nc(-c2cnccn2)sc1C(=O)N[C@H](C(=O)N1C[C@H](Cl)[C@H]2OCC(=O)[C@H]21)C1CCCCC1",
    "Property name": "inhibition at 10 µM",
    "Endpoint value": 73
  },
  {
    "Input smiles": "Cc1nc(-c2cccnc2)sc1C(=O)N[C@H](C(=O)N1C[C@H](Cl)[C@H]2OCC(=O)[C@H]21)C1CCCCC1",
    "Property name": "inhibition at 10 µM",
    "Endpoint value": 70
  },
  {
    "Input smiles": "O=C(N[C@H](C(=O)N1C[C@H](Cl)[C@H]2OCC(=O)[C@H]21)C1CCCCC1)c1sc(-c2cccnc2)nc1C(F)(F)F",
    "Property name": "inhibition at 10 µM",
    "Endpoint value": 60
  }
]
